# experimental-system: NOS1, P29475
# Sequence (P29475 9-101): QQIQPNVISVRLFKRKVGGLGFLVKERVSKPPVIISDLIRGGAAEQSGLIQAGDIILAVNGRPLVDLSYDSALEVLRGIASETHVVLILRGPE
# assay-text: holdup assay
# Set-up: key: below the threshold = too weak to quantify, mostly under pKd 3.1 to 4
# details: plain residues with an end cap or a label only (N-terminal biotin on a linker: ahx)
quantity-name: pKd

>>> val("HNAFLSVTTV [PDZRN4, Q6ZMN7]")
"below the threshold"
>>> val("SDSSGQEYSL [KCTD3, Q9Y597]")
3.61
>>> val("LSDPSVSTVV [GRIN1, Q05586;Q05586-2]")
"below the threshold"
>>> val("GYDWGPATDL [TJP3, O95049]")
"below the threshold"
>>> val("RRRKRKRTYL [HPV49-L2, P36762]")
3.71

# evaluate next
State the recorded pKd for this entry: PSASCAVTAA [PDLIM4, P50479;P50479-2]
below the threshold
